Experiment: Selectivity index, ratio of HC50 for mouse RBC to MIC for methicillin resistance Staphylococcus aureus ATCC 33591
// reported Selectivity Index for each item listed
Respond with the number and no other words.

Please review the entries below; each comes with its answer.
- item-smiles: "CCCCCCCCCC(=O)N[C@@H](CCCCN)CN1CC(=O)N(C23CC4CC(CC(C4)C2)C3)C1=O"
  numeric-value: 20
- item-smiles: "CCCCCCCCCC(=O)N[C@@H](CCCCN)CN1CC(=O)N(c2cccc(Cl)c2)C1=O"
  numeric-value: 16
- item-smiles: "CCCCCCCCCCCC(=O)N[C@@H](CCCCN)CN1CC(=O)N(c2ccc(OC)cc2)C1=O"
  numeric-value: 8

For the compound `CCCCCCCCCCCC(=O)N[C@@H](CCCCN)CN1CC(=O)N(C2CCCCC2)C1=O` , what Selectivity Index is on record? 16

For the compound `CCCCCCCCCCCC(=O)N[C@@H](CCCCN)CN1CC(=O)N(c2cccc(Cl)c2)C1=O` , what Selectivity Index is on record? 190

For the compound `CCCCCCCCCCCCCC(=O)N[C@@H](CCCCN)CN1CC(=O)N(CC)C1=O` , what Selectivity Index is on record? 14.4

For the compound `CCCCCCCCCCCC(=O)N[C@@H](CCCCN)CN1CC(=O)N(CCCC)C1=O` , what Selectivity Index is on record? 6.4

----------
System: Klebsiella pneumoniae
Assay: Antimicrobial activity against Klebsiella pneumoniae ATCC 13383 after 16 hrs
Type: functional
Conditions: ATCC 13383, 16 h
// reported MIC for each item listed

Please review the entries below; each comes with its answer.
- item-smiles: "CCCCCCCCCCCCCC(=O)N[C@@H](CCCCN)CN1CC(=O)N(c2cccc(Cl)c2)C1=O"
  MIC: "> 50 µg/mL"
- item-smiles: "CCCCCCCCCCCCCCCC(=O)N[C@@H](CCCCN)CN1CC(=O)N(c2cccc(Cl)c2)C1=O"
  MIC: "> 50 µg/mL"

For the molecule `CCCCCCCCCC(=O)N[C@@H](CCCCN)CN1CC(=O)N(CC)C1=O` , what MIC is on record? > 50 µg/mL

For the molecule `CCCCCCCCCC(=O)N[C@@H](CCCCN)CN1CC(=O)N(c2ccc(OC)cc2)C1=O` , what MIC is on record? > 50 µg/mL

For the molecule `CCCCCCCCCCCCCCCC(=O)N[C@@H](CCCCN)CN1CC(=O)N(c2ccc(OC)cc2)C1=O` , what MIC is on record? > 50 µg/mL

For the molecule `CCCCCCCCCCCC(=O)N[C@@H](CCCCN)CN1CC(=O)N(C23CC4CC(CC(C4)C2)C3)C1=O` , what MIC is on record? > 50 µg/mL

For the molecule `CCCCCCCCCCCCCCCC(=O)N[C@@H](CCCCN)CN1CC(=O)N(C2CCCCC2)C1=O` , what MIC is on record? > 50 µg/mL
